assay-overview: protein stability index of a GFP-peptide fusion (yeast GPS) (PSI 1-4); higher = more stable; sorted into four equal gates, so the index is relative within each strain
condition-details: ubr1∆
Answer each item with its documented protein stability index.
Numbers only.

Look over these answered cases.
>>> result_number("RDIFQEDEENSDVLLFQ [RGR1]")
3.23
>>> result_number("EKRYDDKLLDFIRYDVK [CSN12]")
3.17
>>> result_number("VRTNTLTKAAIVQIDAT [RPS8A]")
2.3

Batch lookup, protein stability index per entry.
1. ALTRGEALLVVLVSSVT [RPS12]
2. RENVFFQSQQRRKDTSM [RPB9]
3. NYKGLPKKYKENNTDSA [SMC1]
4. ILTDLVNYRHFKAMEDV [ITC1]
5. ENDLLQEFDSELSKEEK [SMC3]

Reply:
[3.29, 2.75, 3.36, 3.39, 3.03]

---

Please respond with reported protein stability index for every item in the list.
assay-overview: protein stability index of a GFP-peptide fusion (yeast GPS) (PSI 1-4); higher = more stable; sorted into four equal gates, so the index is relative within each strain
condition-details: ubr1∆
One number for each entry.

>>> result_number("WFLDHNYIENMNEMCKK [RPN8]")
3.2
>>> result_number("NQLLAALVAYTPTDVIG [RRP6]")
1.24

Lab note: each sequence below needs its protein stability index filled in.
1. SQPTNSTTTSLHVPNLQ [SMC4]
2. RLLNTNVDGNIKIVYAL [RPS18A]

Reply:
1: 2.03; 2: 3.27

For every record below, what is its protein stability index?
1. AFDLDGTGKSQSGSNSG [ROX3]
2. KKWNDLKNKNFKCQEKD [SIR2]
3. MQIFVKTLTGKTITLEV [RPS31]
4. VPQTEEARAEAINLMGV [RPO31]
5. IFGGAGGVPTTSFGQPQ [YOR098C/NUP1]
6. SYFSPINSSNEALVQAF [YCG1]
7. SKRPQLGEIPNPMKKHK [SIR4]

Reply:
3.42
3.11
3.13
3.12
1.4
2.25
2.69

Please go through the list and note protein stability index for each sequence.
1. KYFTELSHYIRQCFQDN [MED1]
2. AHFLSLSFTPTTVIGIR [RPN2]
3. LIEILRLRALQLYFQKN [RRI2]

Reply:
[2.5, 1.27, 1.04]

Provide the reported protein stability index of each entry below, same order.
1. NNTVDPGFDEFQLIDMK [CSI1]
2. KKISRLPKFLTVQYVRF [UBP6]
3. LQQELATTQDQVASIIE [NUT2]

Reply:
3.21
1.36
2.98

---

assay-overview: protein stability index of a GFP-peptide fusion (yeast GPS) (PSI 1-4); higher = more stable; sorted into four equal gates, so the index is relative within each strain
condition-details: ubr1∆
parameter-measured: protein stability index
Answers are plain numbers.

Would you please look over these solved cases?
>>> result_number("DNIYRNLQKIDKDSEEL [MED4]")
3.01
>>> result_number("EDTLSGYDPIVSTRAID [PRP28]")
3.16
>>> result_number("PEMIKRSLLLSRVRADD [RRP43]")
2.92
>>> result_number("FVKFITYLTQEILILIN [SIN4]")
1.59
>>> result_number("RTLEAITATLVGTVRCE [CSL4]")
2.47

Look at each sequence and report its protein stability index.
1. IMERIKSSLSLRDHALS [ITC1]
2. ENCLNNDPEILKKIASI [SWI1]
3. TNTHPNFLSKIRNINVQ [SNF2]
4. RAKSCGVDAMSVDDLKK [RPL1A]
5. TLISENWWHSEFEIPVS [BRR2]

Reply:
[2.65, 2.71, 1.34, 2.48, 1.25]

# map each sequence to its protein stability index
1. KPFLKKTQEYYTQYTND [CDC53]
2. LAQKKAHLAEIQLNGGS [RPL3]
3. DITSDQLLQRLNDMNTE [SMC3]
4. VPATAAPGTEAGIVPVS [SWI1]

Reply:
3.01
2.85
3.17
3.15
